Target: Progesterone receptor (Homo sapiens) (UniProt P06401)
Sequence (P06401 whole entry): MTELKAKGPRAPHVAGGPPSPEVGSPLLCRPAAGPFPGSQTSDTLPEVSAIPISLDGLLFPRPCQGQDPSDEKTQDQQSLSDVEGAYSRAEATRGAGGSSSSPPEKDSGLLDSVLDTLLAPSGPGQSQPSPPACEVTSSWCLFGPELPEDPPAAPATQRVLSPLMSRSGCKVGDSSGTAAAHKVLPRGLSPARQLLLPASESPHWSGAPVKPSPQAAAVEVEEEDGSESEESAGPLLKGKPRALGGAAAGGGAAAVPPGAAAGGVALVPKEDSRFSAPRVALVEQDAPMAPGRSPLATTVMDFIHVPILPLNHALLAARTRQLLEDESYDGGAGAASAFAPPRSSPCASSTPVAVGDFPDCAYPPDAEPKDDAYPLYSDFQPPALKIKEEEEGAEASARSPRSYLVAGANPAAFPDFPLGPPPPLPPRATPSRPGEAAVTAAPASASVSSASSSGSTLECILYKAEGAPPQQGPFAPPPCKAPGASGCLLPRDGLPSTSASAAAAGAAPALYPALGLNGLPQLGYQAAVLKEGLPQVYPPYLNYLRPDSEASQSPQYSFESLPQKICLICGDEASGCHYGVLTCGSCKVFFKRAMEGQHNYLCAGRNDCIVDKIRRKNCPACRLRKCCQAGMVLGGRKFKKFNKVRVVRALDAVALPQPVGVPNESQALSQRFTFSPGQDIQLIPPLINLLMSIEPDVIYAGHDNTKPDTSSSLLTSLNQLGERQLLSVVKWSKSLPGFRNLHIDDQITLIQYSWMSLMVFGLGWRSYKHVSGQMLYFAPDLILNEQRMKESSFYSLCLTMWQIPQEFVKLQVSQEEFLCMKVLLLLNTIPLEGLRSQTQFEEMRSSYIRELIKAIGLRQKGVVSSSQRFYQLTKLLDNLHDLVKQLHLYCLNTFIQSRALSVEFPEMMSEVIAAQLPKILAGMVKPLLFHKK
Experiment: Antagonistic activity against hPR in co-transfected CV-1 cell
Type: functional, cell-based
Assay Endpoint: Efficacy

| Smiles Notation | Data Value |
| --- | --- |
| C[C@@H]1c2cc3c(C(F)(F)F)cc(O)nc3cc2N[C@@H]1C | 88% |
| C[C@]12CCCC[C@H]1Nc1cc3nc(O)cc(C(F)(F)F)c3cc12 | 96% |
| Oc1cc(C(F)(F)F)c2cc3c(cc2n1)N[C@@H]1CCCC[C@H]31 | 91% |
| CN1c2cc3c(cc2[C@H]2CCCC[C@H]21)c(C(F)(F)F)cc(=O)n3C | 98% |
| C[C@H]1CC[C@H]2Nc3cc4c(cc3[C@H]2C1)c(C(F)(F)F)cc(=O)n4C | 97% |
| Cn1c(=O)cc(C(F)(F)F)c2cc3c(cc21)N[C@@H]1CCCC[C@H]31 | 99% |
| C[C@@H]1Cc2cc3c(C(F)(F)F)cc(O)nc3cc2N1 | 89% |
| CC1(C)CCC[C@]2(C)c3cc4c(C(F)(F)F)cc(O)nc4cc3N[C@H]12 | 96% |

====

Listing of entries alongside the reported IC50.
Target: Estrogen receptor (Homo sapiens, UniProt Q92731+P03372)
Assay: Antagonistic activity against Estrogen receptor in co-transfected CV-1 cell
Assay type: functional, cell-based
Assay Endpoint: IC50

| Smiles Notation | Assay Endpoint | Data Value |
| --- | --- | --- |
| Oc1cc(C(F)(F)F)c2cc3c(cc2n1)N[C@@H]1CCCC[C@H]31 | IC50 | > 10 µM |
| C[C@H]1CC[C@H]2Nc3cc4c(cc3[C@H]2C1)c(C(F)(F)F)cc(=O)n4C | IC50 | > 10 µM |
| C[C@@H]1Cc2cc3c(C(F)(F)F)cc(O)nc3cc2N1 | IC50 | > 10 µM |
| Cn1c(=O)cc(C(F)(F)F)c2cc3c(cc21)N[C@@H]1CCCC[C@H]31 | IC50 | > 10 µM |
| C[C@]12CCCC[C@H]1Nc1cc3nc(O)cc(C(F)(F)F)c3cc12 | IC50 | > 10 µM |
| C[C@@H]1c2cc3c(C(F)(F)F)cc(O)nc3cc2N[C@@H]1C | IC50 | > 10 µM |
| CC1(C)CCC[C@]2(C)c3cc4c(C(F)(F)F)cc(O)nc4cc3N[C@H]12 | IC50 | > 10 µM |
| CN1c2cc3c(cc2[C@H]2CCCC[C@H]21)c(C(F)(F)F)cc(=O)n3C | IC50 | > 10 µM |

====

Biological target: Androgen receptor (Homo sapiens, UniProt P10275)
Sequence (P10275 whole entry): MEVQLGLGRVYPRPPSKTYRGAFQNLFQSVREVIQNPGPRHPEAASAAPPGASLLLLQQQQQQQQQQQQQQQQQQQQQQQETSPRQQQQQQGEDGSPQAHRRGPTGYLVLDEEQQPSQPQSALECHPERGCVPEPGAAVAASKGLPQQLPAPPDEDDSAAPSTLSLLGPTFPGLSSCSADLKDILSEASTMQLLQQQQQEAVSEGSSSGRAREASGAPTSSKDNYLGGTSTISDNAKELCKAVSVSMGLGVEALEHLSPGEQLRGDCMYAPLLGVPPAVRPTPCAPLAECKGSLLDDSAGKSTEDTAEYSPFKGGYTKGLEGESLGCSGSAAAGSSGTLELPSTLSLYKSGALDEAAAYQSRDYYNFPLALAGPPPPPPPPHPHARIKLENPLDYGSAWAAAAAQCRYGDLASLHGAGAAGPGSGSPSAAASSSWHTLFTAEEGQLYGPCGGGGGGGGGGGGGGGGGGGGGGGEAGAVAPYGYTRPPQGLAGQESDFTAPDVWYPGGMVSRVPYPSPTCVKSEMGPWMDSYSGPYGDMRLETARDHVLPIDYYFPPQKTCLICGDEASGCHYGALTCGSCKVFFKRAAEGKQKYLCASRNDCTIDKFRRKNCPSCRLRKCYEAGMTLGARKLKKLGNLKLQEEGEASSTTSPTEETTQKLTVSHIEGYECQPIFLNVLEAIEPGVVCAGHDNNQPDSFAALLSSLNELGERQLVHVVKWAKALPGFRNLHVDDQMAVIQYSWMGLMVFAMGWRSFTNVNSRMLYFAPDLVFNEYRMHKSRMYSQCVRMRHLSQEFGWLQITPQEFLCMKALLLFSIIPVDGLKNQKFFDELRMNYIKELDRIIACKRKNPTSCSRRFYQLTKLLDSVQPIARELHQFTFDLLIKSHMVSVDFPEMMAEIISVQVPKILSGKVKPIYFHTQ
Consider the reported IC50 of an entry and match it to a band in small value (below 0.03 µM), mid value (0.03 µM to below 0.05 µM), large value (0.05 µM or more)

| Smiles Notation | Class Assignment |
| --- | --- |
| CN1CCc2cc3c(C(F)(F)F)cc(=O)n(C)c3cc21 | large value |
| C[C@H]1N(C)c2cc3c(cc2C1(C)C)c(C(F)(F)F)cc(=O)n3C | large value |
| CN1c2cc3c(cc2[C@H]2CCCC[C@H]21)c(C(F)(F)F)cc(=O)n3C | mid value |
| C[C@@H]1Cc2cc3c(C(F)(F)F)cc(O)nc3cc2N1 | small value |
| CN1c2cc3c(cc2[C@H]2CCCC(C)(C)[C@H]21)c(C(F)(F)F)cc(=O)n3C | small value |
| C[C@H]1CC[C@@H]2[C@H](C1)c1cc3c(C(F)(F)F)cc(=O)n(C)c3cc1N2C | large value |
| CCn1c(=O)cc(C(F)(F)F)c2cc3c(cc21)N[C@@H]1CCCC[C@H]31 | large value |
| CCCN1c2cc3c(cc2[C@H]2CCCC[C@H]21)c(C(F)(F)F)cc(=O)n3C | small value |
| C[C@H]1Nc2cc3c(cc2C1(C)C)c(C(F)(F)F)cc(=O)n3C | small value |
| CC1(C)CNc2cc3nc(O)cc(C(F)(F)F)c3cc21 | small value |
| C[C@H]1CC[C@H]2Nc3cc4c(cc3[C@H]2C1)c(C(F)(F)F)cc(=O)n4C | mid value |
| Cn1c(=O)cc(C(F)(F)F)c2cc3c(cc21)NCC3 | large value |
| CC1(C)CCC[C@@H]2c3cc4c(C(F)(F)F)cc(O)nc4cc3N[C@@H]21 | small value |
| C[C@@H]1c2cc3c(C(F)(F)F)cc(=O)n(C)c3cc2N[C@@H]1C | large value |
| CN1c2cc3c(cc2[C@@]2(C)CCCC[C@@H]12)c(C(F)(F)F)cc(=O)n3C | large value |
| C[C@H]1Nc2cc3[nH]c(=O)cc(C(F)(F)F)c3cc2C1(C)C | mid value |
